Hi there, I'd appreciate the recorded Vmax for every entry that follows.
protocol: V max(beta-lactam) measured in dimethyl sulfoxide
Format: ADME
Report the figure in cm⁻¹ without appending any unit label.

Kindly note the recorded Vmax for Cn1nnnc1SCC1=C(C(=O)[O-])N2C(=O)[C@@H](NC(=O)Cc3ccc(O)cc3)C2SC1.[Na+] (stereo not given in full) , which is 1773.1

Kindly note the recorded Vmax for Cn1nnnc1SCC1=C(C(=O)[O-])N2C(=O)[C@@](C)(NC(=O)C(C(=O)[O-])c3ccc(O)cc3)C2OC1.[Na+].[Na+] (stereo not given in full) , which is 1774.5

Kindly note the recorded Vmax for CO[C@@]1(NC(=O)Cc2ccc(O)cc2)C(=O)N2C(C(=O)[O-])=C(CSc3nnnn3C)CSC21.[Na+] (stereo not given in full) , which is 1768.1

Kindly note the recorded Vmax for CO[C@@]1(NC(=O)Cc2ccc(O)cc2)C(=O)N2C(C(=O)[O-])=C(CSc3nnnn3C)COC21.[Na+] (stereo not given in full) , which is 1772.9

Kindly note the recorded Vmax for CO[C@@]1(NC(=O)C(C(=O)[O-])c2ccc(O)cc2)C(=O)N2C(C(=O)[O-])=C(CSc3nnnn3C)CSC21.[Na+].[Na+] (stereo not given in full) , which is 1767.8

Kindly note the recorded Vmax for Cn1nnnc1SCC1=C(C(=O)[O-])N2C(=O)[C@@H](NC(=O)C(C(=O)[O-])c3ccc(O)cc3)C2OC1.[Na+].[Na+] (stereo not given in full) , which is 1779.2

Kindly note the recorded Vmax for COC1(NC(=O)C(C(=O)[O-])c2ccc(O)cc2)C(=O)N2C(C(=O)[O-])=C(CSc3nnnn3C)CCC21.[Na+].[Na+] (stereo not given) , which is 1757

Kindly note the recorded Vmax for Cn1nnnc1SCC1=C(C(=O)[O-])N2C(=O)[C@@H](NC(=O)C(C(=O)[O-])c3ccc(O)cc3)C2SC1.[Na+].[Na+] (stereo not given in full) , which is 1770

Kindly note the recorded Vmax for Cn1nnnc1SCC1=C(C(=O)[O-])N2C(=O)[C@@H](NC(=O)Cc3ccc(O)cc3)C2OC1.[Na+] (stereo not given in full) , which is 1778.2

Kindly note the recorded Vmax for CO[C@@]1(NC(=O)C(C(=O)[O-])c2ccc(O)cc2)C(=O)N2C(C(=O)[O-])=C(CSc3nnnn3C)COC21.[Na+].[Na+] (stereo not given in full) , which is 1771.8

====

Hi there, I'd appreciate the recorded MIC for every entry that follows.
Test system: Escherichia coli
protocol: Minimum inhibitory concentration (MIC) against Escherichia coli NIHJ JC-2 in gradient plate method
Format: functional
Report the figure in µg/mL without appending any unit label.

Kindly note the recorded MIC for Cn1nnnc1SCC1=C(C(=O)[O-])N2C(=O)[C@@H](NC(=O)C(C(=O)[O-])c3ccc(O)cc3)C2SC1.[Na+].[Na+] (stereo partly drawn) , which is 1.5

Kindly note the recorded MIC for CO[C@@]1(NC(=O)Cc2ccc(O)cc2)C(=O)N2C(C(=O)[O-])=C(CSc3nnnn3C)COC21.[Na+] (stereo partly drawn) , which is 0.08

Kindly note the recorded MIC for Cn1nnnc1SCC1=C(C(=O)[O-])N2C(=O)[C@@H](NC(=O)Cc3ccc(O)cc3)C2SC1.[Na+] (stereo partly drawn) , which is 1.2

Kindly note the recorded MIC for CO[C@@]1(NC(=O)C(C(=O)[O-])c2ccc(O)cc2)C(=O)N2C(C(=O)[O-])=C(CSc3nnnn3C)COC21.[Na+].[Na+] (stereo partly drawn) , which is 0.09

Kindly note the recorded MIC for CO[C@@]1(NC(=O)Cc2ccc(O)cc2)C(=O)N2C(C(=O)[O-])=C(CSc3nnnn3C)CSC21.[Na+] (stereo partly drawn) , which is 0.5

Kindly note the recorded MIC for Cn1nnnc1SCC1=C(C(=O)[O-])N2C(=O)[C@@H](NC(=O)Cc3ccc(O)cc3)C2OC1.[Na+] (stereo partly drawn) , which is 0.34

Kindly note the recorded MIC for Cn1nnnc1SCC1=C(C(=O)[O-])N2C(=O)[C@@H](NC(=O)C(C(=O)[O-])c3ccc(O)cc3)C2OC1.[Na+].[Na+] (stereo partly drawn) , which is 0.29

Kindly note the recorded MIC for CO[C@@]1(NC(=O)C(C(=O)[O-])c2ccc(O)cc2)C(=O)N2C(C(=O)[O-])=C(CSc3nnnn3C)CSC21.[Na+].[Na+] (stereo partly drawn) , which is 0.55

====

Tested on: Klebsiella pneumoniae
protocol: Minimum inhibitory concentration (MIC) against Klebsiella pneumoniae SRL-1 in gradient plate method
Assay type: functional
Quick rule for you: MIC under 0.3 mg/L gets yes, anything else gets no.

Dear colleague, could you confirm whether MIC of CO[C@@]1(NC(=O)C(C(=O)[O-])c2ccc(O)cc2)C(=O)N2C(C(=O)[O-])=C(CSc3nnnn3C)COC21.[Na+].[Na+] (stereo partly drawn) falls below 0.3 mg/L? Thanks.
yes

Dear colleague, could you confirm whether MIC of Cn1nnnc1SCC1=C(C(=O)[O-])N2C(=O)[C@@H](NC(=O)Cc3ccc(O)cc3)C2SC1.[Na+] (stereo partly drawn) falls below 0.3 mg/L? Thanks.
no

Dear colleague, could you confirm whether MIC of CO[C@@]1(NC(=O)Cc2ccc(O)cc2)C(=O)N2C(C(=O)[O-])=C(CSc3nnnn3C)CSC21.[Na+] (stereo partly drawn) falls below 0.3 mg/L? Thanks.
no

Dear colleague, could you confirm whether MIC of Cn1nnnc1SCC1=C(C(=O)[O-])N2C(=O)[C@@H](NC(=O)Cc3ccc(O)cc3)C2OC1.[Na+] (stereo partly drawn) falls below 0.3 mg/L? Thanks.
no

Dear colleague, could you confirm whether MIC of CO[C@@]1(NC(=O)C(C(=O)[O-])c2ccc(O)cc2)C(=O)N2C(C(=O)[O-])=C(CSc3nnnn3C)CSC21.[Na+].[Na+] (stereo partly drawn) falls below 0.3 mg/L? Thanks.
no

Dear colleague, could you confirm whether MIC of Cn1nnnc1SCC1=C(C(=O)[O-])N2C(=O)[C@@H](NC(=O)C(C(=O)[O-])c3ccc(O)cc3)C2SC1.[Na+].[Na+] (stereo partly drawn) falls below 0.3 mg/L? Thanks.
no

Dear colleague, could you confirm whether MIC of CO[C@@]1(NC(=O)Cc2ccc(O)cc2)C(=O)N2C(C(=O)[O-])=C(CSc3nnnn3C)COC21.[Na+] (stereo partly drawn) falls below 0.3 mg/L? Thanks.
yes

====

Hi there, I'd appreciate the recorded Vmax for every entry that follows.
protocol: V max(amide I) measured in dimethyl sulfoxide
Format: ADME
Report the figure in cm⁻¹ without appending any unit label.

Kindly note the recorded Vmax for CO[C@@]1(NC(=O)Cc2ccc(O)cc2)C(=O)N2C(C(=O)[O-])=C(CSc3nnnn3C)COC21.[Na+] (stereo not given in full) , which is 1694.9

Kindly note the recorded Vmax for Cn1nnnc1SCC1=C(C(=O)[O-])N2C(=O)[C@@H](NC(=O)C(C(=O)[O-])c3ccc(O)cc3)C2SC1.[Na+].[Na+] (stereo not given in full) , which is 1669

Kindly note the recorded Vmax for Cn1nnnc1SCC1=C(C(=O)[O-])N2C(=O)[C@@H](NC(=O)Cc3ccc(O)cc3)C2OC1.[Na+] (stereo not given in full) , which is 1674.5

Kindly note the recorded Vmax for CO[C@@]1(NC(=O)Cc2ccc(O)cc2)C(=O)N2C(C(=O)[O-])=C(CSc3nnnn3C)CSC21.[Na+] (stereo not given in full) , which is 1690.6

Kindly note the recorded Vmax for COC1(NC(=O)C(C(=O)[O-])c2ccc(O)cc2)C(=O)N2C(C(=O)[O-])=C(CSc3nnnn3C)CCC21.[Na+].[Na+] (stereo not given) , which is 1684.5

Kindly note the recorded Vmax for CO[C@@]1(NC(=O)C(C(=O)[O-])c2ccc(O)cc2)C(=O)N2C(C(=O)[O-])=C(CSc3nnnn3C)CSC21.[Na+].[Na+] (stereo not given in full) , which is 1682.3

Kindly note the recorded Vmax for CO[C@@]1(NC(=O)C(C(=O)[O-])c2ccc(O)cc2)C(=O)N2C(C(=O)[O-])=C(CSc3nnnn3C)COC21.[Na+].[Na+] (stereo not given in full) , which is 1686.6

Kindly note the recorded Vmax for Cn1nnnc1SCC1=C(C(=O)[O-])N2C(=O)[C@@H](NC(=O)C(C(=O)[O-])c3ccc(O)cc3)C2OC1.[Na+].[Na+] (stereo not given in full) , which is 1665.4

Kindly note the recorded Vmax for Cn1nnnc1SCC1=C(C(=O)[O-])N2C(=O)[C@@H](NC(=O)Cc3ccc(O)cc3)C2SC1.[Na+] (stereo not given in full) , which is 1676.3

Kindly note the recorded Vmax for Cn1nnnc1SCC1=C(C(=O)[O-])N2C(=O)[C@@](C)(NC(=O)C(C(=O)[O-])c3ccc(O)cc3)C2OC1.[Na+].[Na+] (stereo not given in full) , which is 1668.2
